Test system: SF-268
test.summary: Cytotoxicity against human SF268 cells after 48 hrs by SRB assay
Type: functional
conditions.used: SF-268, 48 h
Recorded GI50 for the following compounds

Input line: Give the observed GI50 of C=C1CCC[C@H]2[C@](C)(CC3=C(O)C(=O)C=C(NCCC(=O)O)C3=O)[C@@H](C)CC[C@]12C for SF-268.
Output line: 20 µM

Input line: Specify the recorded GI50 for C=C1CCC[C@H]2[C@](C)(Cc3c(O)c(O)cc4ncoc34)[C@@H](C)CC[C@]12C , system: SF-268.
Output line: 24 µM

Input line: System SF-268. Read-out GI50. Item C=C1CCC[C@H]2[C@](C)(CC3=C(O)C(=O)C=C(NCC(=O)O)C3=O)[C@@H](C)CC[C@]12C . Report value.
Output line: 9.7 µM

====

Test system: SF-268
test.summary: Cytotoxicity against human SF268 cells after 48 hrs by SRB assay
Format: functional
conditions.used: SF-268, 48 h
# reported GI50; entries follow
Give the number; µM is assumed, so skip it.

C=C1CCC[C@H]2[C@](C)(CC3=C(O)C(=O)C=C(OC)C3=O)[C@@H](C)CC[C@]12C: 2.7
C=C1CCC[C@H]2[C@](C)(Cc3c(OC(C)=O)c(OC(C)=O)cc4ncoc34)[C@@H](C)CC[C@]12C [NAKIJINOL B DIACETATE]: 9

# next compound below
Input line: Recall and state the measured GI50 for C=C1CCC[C@@]23OC4=C(C[C@]2(C)[C@@H](C)CC[C@@]13C)C(=O)C(OC)=CC4=O .
Output line: 32
